Where do these numbers come from? They come from the supplement of paper PMC11061612.

System: SISO (Cervical Carcinoma);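 also: after 72 h of two-drug dosing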
Test: Bliss excess, mean over the matrix (fraction); higher = more synergy
ATTRIBUTE MEASURED: Bliss excess
Give bare numbers.

{"columns": ["MOLECULE", "SYSTEM NAME", "Bliss excess"],
 "data": [
  ["COc1nnc2ccc(N3CCC(c4ccc(OCCN5CCN(C)C(=O)[C@H]5C)cc4)CC3)nn12 [AZD5153] + C=CCn1c(=O)c2cnc(Nc3ccc(N4CCN(C)CC4)cc3)nc2n1-c1cccc(C(C)(C)O)n1 [AZD1775] (first compound max 1 µM, partner max 1 µM)", "SISO (Cervical Carcinoma)", -0.0346]
]}

Batch lookup, Bliss excess per entry.
1. CN(C)CCCOc1ccc(-c2ccc3ncc4c(c3c2)n(C2CCOCC2)c(=O)n4C)cn1 [AZD0156] + CCN(CCO)CCCOc1ccc2c(Nc3cc(CC(=O)Nc4cccc(F)c4)[nH]n3)ncnc2c1 [AZD2811] (first compound max 1 µM, 7x7, partner max 1 µM)
2. CC1(C)CCC(CN2CCN(c3ccc(C(=O)NS(=O)(=O)c4ccc(NCC5CCOCC5)c([N+](=O)[O-])c4)c(Oc4cnc5[nH]ccc5c4)c3)CC2)=C(c2ccc(Cl)cc2)C1 [Venetoclax] + CCN(CCO)CCCOc1ccc2c(Nc3cc(CC(=O)Nc4cccc(F)c4)[nH]n3)ncnc2c1 [AZD2811] (first compound max 1 µM, 7x7, partner max 1 µM)
3. C[C@@H](c1ccc2nccn2c1)n1nnc2ncc(-c3cnn(C)c3)nc21 [Savolitinib] + Cc1c2c(nn1C)CSCc1cc(n(C)n1)CSc1cc(c3ccccc3c1)OCCCc1c(C(=O)O)n(C)c3c-2c(Cl)ccc13 [AZD5991] (first compound max 1 µM, 7x7, partner max 1 µM)

### Response
[0.0081, -0.0091, -0.0596]

----------
Test system: CAL-29 (Bladder Carcinoma)
Experiment: combination Emax (second highest fraction inhibited in the dose matrix, 72 h); higher = more inhibition; extreme values may be limits of the assay
ATTRIBUTE MEASURED: combination Emax

Solved entries (count: 4):
{"columns": ["COMPOUND", "combination Emax"],
 "data": [
  ["NC1(C(=O)N[C@@H](CCO)c2ccc(Cl)cc2)CCN(c2ncnc3[nH]ccc23)CC1 [Capivasertib] + Cn1cnc2c(F)c(Nc3ccc(Br)cc3Cl)c(C(=O)NOCCO)cc21 [Selumetinib] (first compound max 10 µM, 7x7, partner max 10 µM)", 0.66],
  ["CN(CCO)CC[C@H](CSc1ccccc1)Nc1ccc(S(=O)(=O)NC(=O)c2ccc(N3CCC([C@@H](O)c4ccccc4-c4ccc(Cl)cc4)CC3)cc2)cc1S(=O)(=O)C(F)(F)F [AZD4320] + C[C@@H](Nc1cc(F)cc(F)c1)c1cc(C(=O)N(C)C)cc2c(=O)cc(N3CCOCC3)oc12 [AZD8186] (first compound max 1 µM, 7x7, partner max 3 µM)", 0.515],
  ["COc1nnc2ccc(N3CCC(c4ccc(OCCN5CCN(C)C(=O)[C@H]5C)cc4)CC3)nn12 [AZD5153] + C[C@@H]1COCCN1C2=NC(=NC(=C2)C3(CC3)[S@](=N)(=O)C)C4=C5C=CNC5=NC=C4 [AZD6738] (first compound max 1 µM, 7x7, partner max 10 µM)", 0.7],
  ["CC1(C)CCC(CN2CCN(c3ccc(C(=O)NS(=O)(=O)c4ccc(NCC5CCOCC5)c([N+](=O)[O-])c4)c(Oc4cnc5[nH]ccc5c4)c3)CC2)=C(c2ccc(Cl)cc2)C1 [Venetoclax] + Cn1cnc2c(F)c(Nc3ccc(Br)cc3Cl)c(C(=O)NOCCO)cc21 [Selumetinib] (first compound max 1 µM, 7x7, partner max 3 µM)", 0.245]
]}

Shift focus to the following entry.
The reported value for CN(CCO)CC[C@H](CSc1ccccc1)Nc1ccc(S(=O)(=O)NC(=O)c2ccc(N3CCC([C@@H](O)c4ccccc4-c4ccc(Cl)cc4)CC3)cc2)cc1S(=O)(=O)C(F)(F)F [AZD4320] + C[C@@H]1COCCN1C2=NC(=NC(=C2)C3(CC3)[S@](=N)(=O)C)C4=C5C=CNC5=NC=C4 [AZD6738] (first compound max 1 µM, 7x7, partner max 10 µM) in terms of combination Emax is 0.928
